// data source = paper PMC11184554

- experimental.details: Cytotoxicity, CellTiter Glo 2.0
- Assay type: cell-based
- test.conditions: human; panel B; NHDF; 10 µM; 24 h; ± SD; read-out: Cell line viability (%) after treatment with 10 µM compound
readout.type: viability at 24 h, 10 µM (%)

compound | readout.type | test.result
COC1=CC(=O)N(C(=O)/C=C/[C@H](C)NC(=O)[C@H](CC(C)C)NC(=O)[C@H](CC(C)C)OC(=O)[C@H](Cc2ccccc2)N(C)C)[C@H]1Cc1ccccc1 [compound 6] | viability at 24 h, 10 µM | 100
CC[C@H](C)[C@@H](C(=O)O[C@@H](CC(C)C)C(=O)N[C@@H](CC(C)C)C(=O)N[C@@H](C)/C=C/C(=O)N1C(=O)C=C(OC)[C@@H]1C)N(C)C [gallinamide A] | viability at 24 h, 10 µM | 80
